- assay_details: Blood sampling for THC and CBD plasma concentration after single oral dosing
- study_conditions: dog, plasma, oral, THC level in blood plasma fraction, mean of dogs 1-4; 0.24 mg/kg THC + 0.12 mg/kg CBD oral once; 6 h

compound	concentration at 6 h / ng/mL
CCCCCc1cc(O)c2c(c1)OC(C)(C)[C@@H]1CCC(C)=C[C@@H]21 [THC, Δ^9-Tetrahydrocannabinol]	6.33

* * *

- assay_details: Blood sampling for THC and CBD plasma concentration after single oral dosing
- study_conditions: dog, plasma, oral, CBD concentration recorded in subjects, 16 hours post administration
measured_property: concentration at 16 h (ng/mL)

compound	endpoint_result
C=C(C)[C@@H]1CCC(C)=C[C@H]1c1c(O)cc(CCCCC)cc1O [CBD, Cannabidiol]	0.26

* * *

- assay_details: Blood sampling for THC and CBD plasma concentration after single oral dosing
- study_conditions: dog, plasma, oral, THC level in blood plasma fraction, individual dogs 5-8; 0.12 mg/kg THC + 0.24 mg/kg CBD oral once; 72 h
measured_property: concentration at 72 h (ng/mL)

compound	endpoint_result
CCCCCc1cc(O)c2c(c1)OC(C)(C)[C@@H]1CCC(C)=C[C@@H]21 [THC, Δ^9-Tetrahydrocannabinol]	0

* * *

- assay_details: Blood sampling for THC and CBD plasma concentration after single oral dosing
- study_conditions: dog, plasma, oral, CBD concentration in blood plasma, mean of dogs 5-8; 0.24 mg/kg CBD + 0.12 mg/kg THC oral once; 0 h

structure_as_smiles	unit_info	concentration at 0 h
C=C(C)[C@@H]1CCC(C)=C[C@H]1c1c(O)cc(CCCCC)cc1O	ng/mL	0

* * *

- assay_details: Blood sampling for THC and CBD plasma concentration after single oral dosing
- study_conditions: dog, plasma, oral, CBD concentration in blood plasma, individual dogs 5-8; 0.24 mg/kg CBD + 0.12 mg/kg THC oral once; 24 h

compound	unit_info	concentration at 24 h
C=C(C)[C@@H]1CCC(C)=C[C@H]1c1c(O)cc(CCCCC)cc1O [CBD, Cannabidiol]	ng/mL	0.38

* * *

- assay_details: Blood sampling for THC and CBD plasma concentration after single oral dosing
- study_conditions: dog, plasma, oral, THC level in blood plasma fraction, mean of dogs 5-8; 0.12 mg/kg THC + 0.24 mg/kg CBD oral once; 72 h
measured_property: concentration at 72 h (ng/mL)

compound	unit_info	endpoint_result
CCCCCc1cc(O)c2c(c1)OC(C)(C)[C@@H]1CCC(C)=C[C@@H]21 [THC, Δ^9-Tetrahydrocannabinol]	ng/mL	0

* * *

- assay_details: Blood sampling for THC and CBD plasma concentration after single oral dosing
- study_conditions: dog, plasma, oral, CBD concentration in blood plasma, mean of dogs 1-4; 0.12 mg/kg CBD + 0.24 mg/kg THC oral once; 16 h
measured_property: concentration at 16 h

structure_as_smiles	measured_property	endpoint_result
C=C(C)[C@@H]1CCC(C)=C[C@H]1c1c(O)cc(CCCCC)cc1O	concentration at 16 h	0.16 ng/mL

* * *

- assay_details: Blood sampling for THC and CBD plasma concentration after single oral dosing
- study_conditions: dog, plasma, oral, CBD concentration in blood plasma, mean of dogs 1-4; 0.12 mg/kg CBD + 0.24 mg/kg THC oral once; 32 h

structure_as_smiles	concentration at 32 h / ng/mL
C=C(C)[C@@H]1CCC(C)=C[C@H]1c1c(O)cc(CCCCC)cc1O	0

Values were extracted from patent US12083094B2.
